Attribution: patent US20040152766A1

Test system: SK-OV-3 human ovarian cancer
Assay: In vitro antitumor-drug screening, MTT assay, SK-OV-3
Format: cell-based
Conditions: SK-OV-3 human ovarian cancer; n = 12-16 from 3-4 independent experiments; read-out: Growth-inhibitory activity IC50 ± sd
Recorded measurements of IC50, one per entry
The figure you give is taken to be in µM; do not add the unit.

// below: answered molecules
# MOLECULE, TGT, UOM, VALUE REPORTED
rows = [
    ("N.N.[Cl][Pt][Cl] [Cisplatin, reference compound]", "SK-OV-3 human ovarian cancer", "µM", 15.2),
    ("N.N.O=C([O-])C1(C(=O)[O-])CCC1.[Pt+2] [Carboplatin, reference compound]", "SK-OV-3 human ovarian cancer", "µM", 149),
    ("C[NH][Pt]1([NH]C)[O]C(=O)C2C3CCC(O3)C2C(=O)[O]1 (stereo not drawn)", "SK-OV-3 human ovarian cancer", "µM", 37.2),
    ("CC[NH][Pt]1([NH]CC)[O]C(=O)C2C3CCC(O3)C2C(=O)[O]1 (stereo not drawn)", "SK-OV-3 human ovarian cancer", "µM", 62.6),
    ("CC(C)[NH][Pt]1([NH]C(C)C)[O]C(=O)C2C3CCC(O3)C2C(=O)[O]1 (stereo not drawn)", "SK-OV-3 human ovarian cancer", "µM", 77.7),
]

Here's the next entry for you.
Exercise: Return the recorded IC50 value; entry: [NH2][Pt]1([NH2])[O]C(=O)C2C3CCC(O3)C2C(=O)[O]1 (stereo not drawn)
Key: 40.8

====

Test system: COLO320DM human colon cancer
Assay: In vitro antitumor-drug screening, MTT assay, COLO320DM
Type: cell-based
Conditions: COLO320-DM human colon cancer; n = 12-16 from 3-4 independent experiments; read-out: Growth-inhibitory activity IC50 ± sd
QUANTITY: pIC50
Just the number, please; pIC50 means minus log10 of the concentration in mol/L.

# COMPOUND, VALUE REPORTED
rows = [
    ("C[NH][Pt]1([NH]C)[O]C(=O)C2C3CCC(O3)C2C(=O)[O]1 (stereo not drawn) [Complex 3]", 4.31),
    ("[NH2][Pt]1([NH2])[O]C(=O)C2C3CCC(O3)C2C(=O)[O]1 (stereo not drawn) [Complex 1]", 4.43),
    ("CC(C)[NH][Pt]1([NH]C(C)C)[O]C(=O)C2C3CCC(O3)C2C(=O)[O]1 (stereo not drawn) [Complex 2]", 4.07),
    ("N.N.[Cl][Pt][Cl] [Cisplatin, reference compound]", 4.92),
    ("N.N.O=C([O-])C1(C(=O)[O-])CCC1.[Pt+2] [Carboplatin, reference compound]", 3.73),
]

Now take the following compound into account.
Exercise: Write down pIC50 measured for item CC[NH][Pt]1([NH]CC)[O]C(=O)C2C3CCC(O3)C2C(=O)[O]1 (stereo not drawn) [Complex 4]
Key: 4.31

====

As shown below, each of these compounds has a reported IC50 value.
System: COLO320DM human colon cancer
Experiment: In vitro antitumor-drug screening, MTT assay, COLO320DM
Format: cell-based
Conditions: Homo sapiens, COLO 320DM; COLO320DM; Table 1; read-out: In vitro antitumor activity IC50
Procedure: Test complexes 1-5, DMC, hydrolyzed DMC, cantharidin, together with controls cisplatin and carboplatin, were screened for in vitro antitumor activity against a series of human cancer cell lines and mouse leukaemia L1210, using a tetrazolium microculture assay. […] Data analysis: The mean OD for all 12 control wells was determined. For each concentration of each drug, the mean OD of the 4 wells was determined. […] The “Percent of Control” values were determined and plotted. […]
Reply numerically in µM, unit not repeated.

# COMPOUND, QUANTITY, VALUE REPORTED
measured = [
    ("C[C@@]12C(=O)OC(=O)[C@]1(C)[C@H]1CC[C@@H]2O1", "IC50", 35.6),
]

--- query ---
Exercise: System COLO320DM human colon cancer. Read-out IC50. Item O=C1OC(=O)C2C3CCC(O3)C12 (centres unmarked) . Report value.
Key: 19.3

====

Tested on: L1210 mouse leukaemia
Assay: In vitro antitumor-drug screening, tetrazolium (MTT) microculture assay, L1210
Type: cell-based
Details: L1210; Table 1; read-out: In vitro antitumor activity IC50
QUANTITY: IC50 (µM)
Note: unit µM is implicit; provide only the numeric part.

Exercise: Write down the reported IC50 (system: L1210 mouse leukaemia) of O=C(O)C1C2CCC(O2)C1C(=O)O (stereo not shown) [Hydrolyzed DMC]
Key: 8.33

====

Tested on: NTERA-S cl D1 human testicular cancer
Experiment: In vitro antitumor-drug screening, MTT assay, NTERA-S cl D1
Format: cell-based
Conditions: n = 12-16 from 3-4 independent experiments, read-out: Growth-inhibitory activity IC50 ± sd
QUANTITY: IC50 (nM)
// return numeric value only (unit: nM, not printed)

Solved cases below.
# COMPOUND, UOM, VALUE REPORTED
data = [
    ("N.N.O=C([O-])C1(C(=O)[O-])CCC1.[Pt+2] [Carboplatin, reference compound]", "nM", 2750),
    ("N.N.[Cl][Pt][Cl] [Cisplatin, reference compound]", "nM", 190),
    ("C[NH][Pt]1([NH]C)[O]C(=O)C2C3CCC(O3)C2C(=O)[O]1 (stereo not drawn) [Complex 3]", "nM", 840),
    ("CC[NH][Pt]1([NH]CC)[O]C(=O)C2C3CCC(O3)C2C(=O)[O]1 (stereo not drawn) [Complex 4]", "nM", 600),
    ("[NH2][Pt]1([NH2])[O]C(=O)C2C3CCC(O3)C2C(=O)[O]1 (stereo not drawn) [Complex 1]", "nM", 360),
]

Exercise: Determine from records and report IC50 for CC(C)[NH][Pt]1([NH]C(C)C)[O]C(=O)C2C3CCC(O3)C2C(=O)[O]1 (stereo not drawn) [Complex 2]
Key: 1440

====

Test system: SK-OV-3 human ovarian cancer
Test: In vitro antitumor-drug screening, MTT assay, SK-OV-3
Format: cell-based
Settings: Homo sapiens; SK-OV-3; Table 1; read-out: In vitro antitumor activity IC50
Procedure: Test complexes 1-5, DMC, hydrolyzed DMC, cantharidin, together with controls cisplatin and carboplatin, were screened for in vitro antitumor activity against a series of human cancer cell lines and mouse leukaemia L1210, using a tetrazolium microculture assay. […] Data analysis: The mean OD for all 12 control wells was determined. For each concentration of each drug, the mean OD of the 4 wells was determined. […] The “Percent of Control” values were determined and plotted. […]
Overview of reported IC50 across a group of compounds:

# COMPOUND, TGT, IC50
rows = [
    ("O=C1OC(=O)C2C3CCC(O3)C12 (centres unmarked)", "SK-OV-3 human ovarian cancer", "53.8 µM"),
]

Then this compound:
Exercise: # return recorded IC50 for input C[C@@]12C(=O)OC(=O)[C@]1(C)[C@H]1CC[C@@H]2O1
Key: 4.98 µM

====

Tested on: L1210 mouse leukaemia
Test: In vitro antitumor-drug screening, tetrazolium (MTT) microculture assay, L1210
Format: cell-based
Details: Mus musculus; L1210; Table 1; read-out: In vitro antitumor activity IC50
QUANTITY: IC50 (µM)
Record the value in µM, omitting the unit from your answer.

# COMPOUND, TGT, IC50 (µM)
data = [
    ("O=C1OC(=O)C2C3CCC(O3)C12 (centres unmarked) [DMC, Demethylcantharidin]", "L1210 mouse leukaemia", 13.9),
]

Then this compound:
Exercise: Please list IC50 recorded for the compound C[C@@]12C(=O)OC(=O)[C@]1(C)[C@H]1CC[C@@H]2O1 [Cantharidin]
Key: 38.9

====

Test system: MDA-MB-231 human breast cancer
Assay: In vitro antitumor-drug screening, MTT assay, MDA-MB-231
Format: cell-based
Details: MDA-MB-231 human breast cancer; n = 12-16 from 3-4 independent experiments; read-out: Growth-inhibitory activity IC50 ± sd
Overview of recorded log10 IC50 for various compounds
// units: µM (pre-log); metric: IC50; scale: log10

# COMPOUND, log10 IC50
records = [
    ("N.N.O=C([O-])C1(C(=O)[O-])CCC1.[Pt+2] [Carboplatin, reference compound]", 3.03),
    ("[NH2][Pt]1([NH2])[O]C(=O)C2C3CCC(O3)C2C(=O)[O]1 (stereo not drawn)", 1.80),
    ("CC[NH][Pt]1([NH]CC)[O]C(=O)C2C3CCC(O3)C2C(=O)[O]1 (stereo not drawn)", 1.80),
    ("CC(C)[NH][Pt]1([NH]C(C)C)[O]C(=O)C2C3CCC(O3)C2C(=O)[O]1 (stereo not drawn)", 1.98),
    ("C[NH][Pt]1([NH]C)[O]C(=O)C2C3CCC(O3)C2C(=O)[O]1 (stereo not drawn)", 1.69),
]

// moving on: another record for log10 IC50
Exercise: Entry N.N.[Cl][Pt][Cl] [Cisplatin, reference compound] needs its log10 IC50 filled in; supply it.
Key: 1.82
